System: Nucleic Acid
Assay: Stabilization of A73U tRNA(Tyr)-5'Rhd-AM1A T box antiterminator RNA complex assessed as increase in anisotrophy changes by at 100 uM by fluorescence anisotropy-based assay relative to untreated control
Type: nucleic-acid assay
Measured Metric: Activity (%)

>>> value("O=C(OC1CCCCC1n1cc(CN2CCOCC2)nn1)c1ccccc1 (stereo not drawn)")
6
>>> value("O=C(Cc1ccccc1)OC1CCCCC1n1cc(CN2CCOCC2)nn1 (stereo not drawn)")
6
>>> value("CN(Cc1cn(CC(O)c2ccccc2)nn1)CC1CCCCC1 (stereo not drawn)")
6

---

Test system: Nucleic Acid
Experiment: Inhibition of A73U tRNA(Tyr)-5'Rhd-AM1A T box antiterminator RNA complex assessed as reduction in anisotrophy changes by at 100 uM by fluorescence anisotropy-based assay relative to untreated control
Type: nucleic-acid assay
# class assignment by measured inhibition: low: < 10%; medium: ≥ 10% and < 30%; high: ≥ 30%

>>> assigned_category("CCCCN(CCCC)Cc1cn(CC(O)COCc2ccccc2)nn1 (stereo unspecified)")
"low"
>>> assigned_category("O=C(COc1ccccc1)OC1CCCCC1n1cc(CN2CCOCC2)nn1 (stereo unspecified)")
"low"
>>> assigned_category("CCCCCCCC(=O)OCC(O)Cn1cc(CN2CCN(c3ccccc3)CC2)nn1 (stereo unspecified)")
"medium"
>>> assigned_category("CCCCC(O)Cn1cc(CN(C)CC2CCCCC2)nn1 (stereo unspecified)")
"high"
>>> assigned_category("CN(CCCc1ccccc1)Cc1cn(CC(O)COC(=O)c2ccccc2)nn1 (stereo unspecified)")
"medium"
>>> assigned_category("O=C(OCC(O)Cn1cc(CN2CCOCC2)nn1)c1ccccc1 (stereo unspecified)")
"low"
>>> assigned_category("CC(C)CCN(C)Cc1cn(CC(O)COC(=O)NCc2ccccc2)nn1 (stereo unspecified)")
"medium"
>>> assigned_category("CCCCNC(=O)OCC(O)Cn1cc(CN(C)CC2CCCCC2)nn1 (stereo unspecified)")
"medium"
>>> assigned_category("CCCCC(O)Cn1cc(CN(C)CCc2ccccc2)nn1 (stereo unspecified)")
"medium"
>>> assigned_category("CCCCCCCC(=O)OCC(O)Cn1cc(CN2CCOCC2)nn1 (stereo unspecified)")
"low"
>>> assigned_category("CC(C)CCN(C)Cc1cn(C2CCCCC2OC(=O)c2ccccc2)nn1 (stereo unspecified)")
"medium"
>>> assigned_category("CC(C)CCN(C)Cc1cn(C2CCCCC2O)nn1 (stereo unspecified)")
"high"
>>> assigned_category("CN(CCCc1ccccc1)Cc1cn(CC(O)COCc2ccccc2)nn1 (stereo unspecified)")
"medium"
>>> assigned_category("CN(Cc1cn(C2CCCCC2OC(=O)COc2ccccc2)nn1)CC1CCCCC1 (stereo unspecified)")
"high"
>>> assigned_category("CN(Cc1cn(C2CCCCC2O)nn1)CC1CCCCC1 (stereo unspecified)")
"high"
>>> assigned_category("CN(CCCc1ccccc1)Cc1cn(C2CCCCC2OC(=O)COc2ccccc2)nn1 (stereo unspecified)")
"high"
